Assignment: determine reported protein stability index for the given variants.
B1: ZNF263 (parent)
chain: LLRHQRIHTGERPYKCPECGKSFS

Variants of: B1
protocol text: protein stability index of a GFP-peptide fusion (GPS, HEK-293T) (PSI 1-6); higher = more stable;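 further: lentivirally expressed fusions sorted by FACS into six bins by GFP to DsRed ratio, PSI derived from sequencing read proportions per bin multiplied by bin number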
study conditions: c terminus: a fixed tail appended
Reply briefly: the number, and no unit.

Enquiry: For LLRHQRIHTGEKPYKCPECGKSFS , what is its reported protein stability index?
Return: 2.43

Enquiry: Recorded protein stability index of LLRHQRIHTGERPYKIPECGKSFS , please.
Return: 2.77

Enquiry: Requested read-out: protein stability index. Entry: LLRHQRIHTGERPYKCPECGKKFS
Return: 2.35

Enquiry: Fill blank: measured protein stability index of the variant LLRHQRIHTGERPYKCPEPGKSFS is ____.
Return: 2.87

Enquiry: # lookup: protein stability index of ELRHQRIHTGERPYKCPECGKSFS
Return: 2.29

Enquiry: Name the recorded protein stability index for LLRHQRIHTGERLYKCPECGKSFS .
Return: 2.73

Enquiry: Report protein stability index for LLRHQRIHTGERPYKCPRCGKSFS please.
Return: 2.41

Enquiry: Fill in: protein stability index of KLRHQRIHTGERPYKCPECGKSFS is ___
Return: 3.58

Enquiry: What value of measured protein stability index is listed for LLRHQRIHTGERPYKVPECGKSFS ?
Return: 2.16

Enquiry: Which protein stability index is listed for LLRHQRGHTGERPYKCPECGKSFS ?
Return: 2.48

Enquiry: Name the recorded protein stability index for LLRHQRIHTGERPYKCPECGKSFA .
Return: 1.92

Enquiry: Query (variant): LLRHQRIHTGEDPYKCPECGKSFS ; field requested: protein stability index
Return: 1.93

Enquiry: Please look up its protein stability index: LLRHQRIHTGERPYKCEECGKSFS
Return: 2.26

Enquiry: Bench note: what protein stability index did LLRHTRIHTGERPYKCPECGKSFS show?
Return: 2.82

Enquiry: # protein stability index lookup, item LLRHQRIHTKERPYKCPECGKSFS
Return: 2.24

Enquiry: Recorded protein stability index for LLRHQRIHTGERPYKCPECGKSYS , please?
Return: 2.79

Enquiry: Using the record for LLWHQRIHTGERPYKCPECGKSFS , report its protein stability index.
Return: 2.3

Enquiry: Which protein stability index is listed for LLRHQRIHTGERPYKCPECPKSFS ?
Return: 1.88

Enquiry: Please give the measured protein stability index for this variant: LLRHQRIHTGERPYKCIECGKSFS
Return: 2.6

Enquiry: For LLRHQRIHTGERAYKCPECGKSFS , what is its reported protein stability index?
Return: 3.1

Enquiry: Reported protein stability index, variant LLRHQKIHTGERPYKCPECGKSFS : ____
Return: 2.81

Enquiry: Can you look up the measured protein stability index of LLRHQRIHTGERTYKCPECGKSFS for me?
Return: 2.56

Enquiry: Data request, read-out protein stability index, for LLRHQRIHTGEMPYKCPECGKSFS
Return: 2.08

Enquiry: # get_value(readout='protein stability index', item= LLRHQRIHTGERPYKCTECGKSFS )
Return: 2.38

Enquiry: Record request: protein stability index value, item LLRHIRIHTGERPYKCPECGKSFS
Return: 2.13

Enquiry: May I ask what protein stability index has been recorded for LLRHQRIHTGLRPYKCPECGKSFS ?
Return: 1.99

Enquiry: Which value of protein stability index has been reported for LLRHQRIHTGERPYMCPECGKSFS in the records?
Return: 2.15

Enquiry: Which protein stability index reading was recorded for the variant LLRHQRIHTGERPYKCPNCGKSFS ?
Return: 2.24

Enquiry: Look up protein stability index: LLRHQRIHTGERPYKCPECEKSFS
Return: 1.66

Enquiry: Field request: protein stability index | item: LLRHQRIHTGERPYKCPFCGKSFS
Return: 2.48

Enquiry: Would you kindly share the measured protein stability index for LLRHQRIHTGERPYDCPECGKSFS ?
Return: 2.74

Enquiry: Reported protein stability index, variant LLRHQRIHTPERPYKCPECGKSFS : ____
Return: 2.15

Enquiry: Return reported protein stability index; argument: LLRHQRIHTGERPFKCPECGKSFS
Return: 2.64

Enquiry: # input variant: LLRHQRIHHGERPYKCPECGKSFS ; wanted: its protein stability index
Return: 2.21

Enquiry: Bench note: what protein stability index did LLRHQRIHTGERPYKCVECGKSFS show?
Return: 2.05

Enquiry: What measured protein stability index goes with LLRHQRIHTGERPYKCPGCGKSFS ?
Return: 2.3

Enquiry: If you can, please state the reported protein stability index value of LLRHQRIHTGERYYKCPECGKSFS .
Return: 1.89

Enquiry: What does the record list as protein stability index for LLRHQRIHGGERPYKCPECGKSFS ?
Return: 3.33

Enquiry: Could you share which protein stability index value was measured for LLRHQRIHTGERPYKCPECGKTFS ?
Return: 2.23

Enquiry: Form field: reported protein stability index of LLRHQRIHTGERPYKCPECGYSFS
Return: 2.19

Enquiry: Form field: reported protein stability index of LLRHQPIHTGERPYKCPECGKSFS
Return: 2.56

Enquiry: Would you mind telling me what protein stability index value was observed for LLRHQQIHTGERPYKCPECGKSFS ?
Return: 2.53

Enquiry: Could you share which protein stability index value was measured for LLRHQRIHTGERPYKCPHCGKSFS ?
Return: 2.5

Enquiry: Which value of protein stability index has been reported for LLRHQRIHTGERPYKCPECMKSFS in the records?
Return: 2.13

Enquiry: // lookup protein stability index for LLRHQRIHTGERPYKCPECFKSFS
Return: 2.99

Enquiry: Sample LLRHQRIHTGERPYKCPECGKSGS — what was its protein stability index?
Return: 2.75

Enquiry: Which measured protein stability index value corresponds to LLRHPRIHTGERPYKCPECGKSFS ?
Return: 2.3

Enquiry: // lookup protein stability index for LLRHQRIHTGERPYKCPEHGKSFS
Return: 3.21

Enquiry: Could you share which protein stability index value was measured for LLRHQRIHTGERPYKCPECHKSFS ?
Return: 2.21

Enquiry: Using the record for LLDHQRIHTGERPYKCPECGKSFS , report its protein stability index.
Return: 3.77

Enquiry: Data request, read-out protein stability index, for LLRHQRIHTGERPYKCPECGKSFH
Return: 2.12

Enquiry: Fill blank: measured protein stability index of the variant LLRHQRIHTGERPYKCPECGKSAS is ____.
Return: 2.87

Enquiry: What protein stability index value was documented for this variant, LLRHQRIHTGERPYKCPECGKPFS ?
Return: 2.36

Enquiry: Returns the measured protein stability index for the input variant. Input: LLRHQRIHTGERKYKCPECGKSFS
Return: 1.78

Enquiry: Tell me the measured protein stability index of LLRHQRIHTGERPYKCPECGKSFC , please.
Return: 3.14

Enquiry: protein stability index lookup needed for LLRHQRIHTGQRPYKCPECGKSFS , thanks.
Return: 2.51

Enquiry: What does the record list as protein stability index for HLRHQRIHTGERPYKCPECGKSFS ?
Return: 2.44

Enquiry: Look up protein stability index for this variant: LLRHQRIHTFERPYKCPECGKSFS
Return: 2.07

Enquiry: Consider the variant LLRHQRIHTGERPTKCPECGKSFS and give its measured protein stability index.
Return: 2.25

Enquiry: State the recorded protein stability index for this entry: LLRHQRIHTGVRPYKCPECGKSFS
Return: 2.56

Enquiry: Which protein stability index is reported for this variant? LLRHQYIHTGERPYKCPECGKSFS
Return: 1.91

Enquiry: Query (variant): LLRHQRMHTGERPYKCPECGKSFS ; field requested: protein stability index
Return: 2.66

Enquiry: Name the reported protein stability index value associated with the variant LLRHQRCHTGERPYKCPECGKSFS
Return: 2.48

Enquiry: Item LLRHQRIHTGERGYKCPECGKSFS has what recorded protein stability index?
Return: 2.36

Enquiry: Fill in the blank: the reported protein stability index of LLRHGRIHTGERPYKCPECGKSFS is ____.
Return: 1.87

Enquiry: Returns the measured protein stability index for the input variant. Input: LLRHQRIHTGERPYKCPECCKSFS
Return: 1.87

Enquiry: Which value of protein stability index has been reported for LLRHQRIHTRERPYKCPECGKSFS in the records?
Return: 2.46

Enquiry: For LLRHQRIHTGERPYFCPECGKSFS , what is its reported protein stability index?
Return: 2.41

Enquiry: Please look up its protein stability index: LPRHQRIHTGERPYKCPECGKSFS
Return: 2.63

Enquiry: Would you kindly share the measured protein stability index for LLRHQRIHTGERPYKCPECGKGFS ?
Return: 2.65

Enquiry: Could you share which protein stability index value was measured for QLRHQRIHTGERPYKCPECGKSFS ?
Return: 4.46

Enquiry: May I ask what protein stability index has been recorded for ALRHQRIHTGERPYKCPECGKSFS ?
Return: 2.82

Enquiry: Looking for the measured protein stability index of LLRHQRIHTGERPYKCPECGKSQS , can you help?
Return: 3.71

Enquiry: What does the record list as protein stability index for LLRHQRIHTGEFPYKCPECGKSFS ?
Return: 2.65

Enquiry: Returns the measured protein stability index for the input variant. Input: LLRHQRIHTGERPYKCPEMGKSFS
Return: 2.07

Enquiry: Item under review: LLRHQRIHDGERPYKCPECGKSFS . Reported protein stability index?
Return: 2.73

Enquiry: For LLRHVRIHTGERPYKCPECGKSFS , what is its reported protein stability index?
Return: 1.74

Enquiry: Endpoint output: protein stability index of LLRHQRIHTGERPYKCYECGKSFS . Value?
Return: 1.39

Enquiry: protein stability index for LLRHQRIHTGERPYCCPECGKSFS ?
Return: 2.16

Enquiry: Please report the recorded protein stability index for LLRHQRIHTGERPYKSPECGKSFS .
Return: 2.73

Enquiry: So what does the record say about protein stability index for LLRHQRIHTGERPYWCPECGKSFS ?
Return: 2.03

Enquiry: Consider the variant LLRHCRIHTGERPYKCPECGKSFS and give its measured protein stability index.
Return: 1.95

Enquiry: Need protein stability index of LLRGQRIHTGERPYKCPECGKSFS , thanks.
Return: 2.99

Enquiry: // protein stability index lookup, key: LLRLQRIHTGERPYKCPECGKSFS
Return: 2.15

Enquiry: Requested read-out: protein stability index. Entry: LLTHQRIHTGERPYKCPECGKSFS
Return: 3.27

Enquiry: # get_value(readout='protein stability index', item= LLRHQRIHTGEYPYKCPECGKSFS )
Return: 2.6

Enquiry: I would be grateful if you could share the reported protein stability index for LLRHQRICTGERPYKCPECGKSFS .
Return: 2.03

Enquiry: Which value of protein stability index has been reported for SLRHQRIHTGERPYKCPECGKSFS in the records?
Return: 2.26

Enquiry: Query: protein stability index; subject: LYRHQRIHTGERPYKCPECGKSFS
Return: 1.82

Enquiry: What does the record list as protein stability index for LLRHQRIHTGERPYKCPECGKSFK ?
Return: 2.07

Enquiry: Look at this variant and give its reported protein stability index. RLRHQRIHTGERPYKCPECGKSFS
Return: 4.23

Recorded values, source the supplement of paper PMC10567573.
